Test system: HCT-116
assay_notes: NCI tumour cell line growth inhibition, 48 h
Calls of active or inactive are those of the source. No stated cut-off is given here; in the data, active = GI50 up to about 1.1 µM and inactive = higher.
measurement_label: GI50

Solved entries (count: 4):
{"columns": ["compound", "GI50"],
 "data": [
  ["O=C1C(Cl)=C(Nc2ccc(S(=O)(=O)Nc3ccccn3)cc2)C(=O)c2ccccc21", "6.24 µM (inactive)"],
  ["[N-]=[N+]=NC1=C(c2ccccn2)C(=O)c2cccc3cccc1c23", "8.63 µM (inactive)"],
  ["C[C@@H]1CC2(C[C@@H](C)C3[C@@H](CC4(C)CCCC5C6=CC(O)(CC[C@]34C)OC6=CC(=O)OC5(C)C)O2)OC1=O (stereo not given in full)", "> 100 µM (inactive)"],
  ["O=C1CC(n2cccc2)c2c(Br)sc(Br)c21 (stereo not given)", "15.3 µM (inactive)"]
]}

Now consider the entry below.
Query block: Give the measured GI50 for CCN(CC)C(=O)Cc1c(C(=O)N(CC)CC)c(=O)nc2sccn12
Result block: > 100 µM (inactive)
